Target: full length human FXR (Homo sapiens)
Sequence (Q96RI1 1-472 isoform Q96RI1-2): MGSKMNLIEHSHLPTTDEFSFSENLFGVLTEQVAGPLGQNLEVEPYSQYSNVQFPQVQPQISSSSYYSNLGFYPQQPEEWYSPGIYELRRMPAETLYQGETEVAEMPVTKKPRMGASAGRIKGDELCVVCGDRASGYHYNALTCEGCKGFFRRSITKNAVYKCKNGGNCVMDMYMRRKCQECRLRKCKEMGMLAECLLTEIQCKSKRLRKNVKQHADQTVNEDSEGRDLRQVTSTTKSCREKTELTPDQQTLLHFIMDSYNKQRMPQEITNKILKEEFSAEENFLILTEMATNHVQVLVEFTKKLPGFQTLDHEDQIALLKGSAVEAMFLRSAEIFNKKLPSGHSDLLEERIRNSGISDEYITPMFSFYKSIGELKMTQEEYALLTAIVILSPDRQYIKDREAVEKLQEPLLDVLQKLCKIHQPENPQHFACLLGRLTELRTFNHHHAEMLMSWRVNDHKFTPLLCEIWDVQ
Sequence (P19793 whole entry partner): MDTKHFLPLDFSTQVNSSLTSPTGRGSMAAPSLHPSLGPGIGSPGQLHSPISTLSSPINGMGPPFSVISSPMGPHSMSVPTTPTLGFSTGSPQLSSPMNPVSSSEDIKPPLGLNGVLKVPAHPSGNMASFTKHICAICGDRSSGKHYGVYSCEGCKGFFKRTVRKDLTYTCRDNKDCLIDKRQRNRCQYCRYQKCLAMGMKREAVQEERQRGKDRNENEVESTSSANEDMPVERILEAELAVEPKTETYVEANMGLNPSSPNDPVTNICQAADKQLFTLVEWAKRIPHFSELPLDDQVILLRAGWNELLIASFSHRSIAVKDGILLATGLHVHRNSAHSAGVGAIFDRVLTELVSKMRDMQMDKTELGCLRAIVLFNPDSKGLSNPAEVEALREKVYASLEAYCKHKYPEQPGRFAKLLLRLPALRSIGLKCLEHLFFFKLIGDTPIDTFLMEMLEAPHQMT
Assay: transactivation of FXR mediated transcription in a HEK293 reporter cell line (luciferase)
Details: HEK293 FXR reporter cell line; Tables 3-5
READOUT: EC50

Previously resolved entries follow.
COc1ccccc1Cc1sc(NCc2ccc(C(=O)O)cc2)nc1-c1ccccc1O [LN0000006329] | 730 nM
O=C(O)c1ccc(CNc2nc(-c3ccccc3O)c(Cc3c(F)cccc3F)s2)cc1 [LN0000006317] | 1450 nM

Field: next compound
Reported EC50 of O=C(O)CCCCCNc1nc(-c2ccccc2O)c(Cc2cccc(F)c2F)s1 [LN0000006346] : 5120 nM
